# assay-target: T1, Biotinylated human TSLP (human, biotinylated)
# T1 construct: also called hTSLP; thymic stromal lymphopoietin
# T1 sequence (chain, as listed by the source limits assumed): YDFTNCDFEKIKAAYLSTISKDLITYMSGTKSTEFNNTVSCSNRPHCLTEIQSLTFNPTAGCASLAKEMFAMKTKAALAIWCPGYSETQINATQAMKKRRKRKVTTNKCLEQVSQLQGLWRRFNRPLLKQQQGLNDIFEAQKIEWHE
# assay-protocol: SPR, biotinylated hTSLP on streptavidin chip
pKd: −log10 of the molar value. *1 amine or outer side, *2 acyl side, *3 side chain or, on linkers, in order; H or OH if unused. Bridges are numbered along the chain shown (N, C = ends). Where no end group is shown, it is not given here. TATA = O=C(CC[*:1])N1CN(C(=O)CC[*:2])CN(C(=O)CC[*:3])C1
Item-by-item account of pKd

[
  {
    "binder": "CQWLEDCWRGXC (N-term acetyl; CQWLEDCWRG[3-CNPhe]C as printed; 3 Cys on TATA) [Example 130]",
    "pKd": 6.40
  },
  {
    "binder": "CQWIEDCWRGXC (N-term acetyl; CQWIEDCWRG[4-FPhe]C as printed; 3 Cys on TATA) [Example 57]",
    "pKd": 7.29
  },
  {
    "binder": "ACRDLDPWTCSSWWLCSESVHTA (linker 2-10-16 via TATA) [Example 175]",
    "pKd": 6.62
  },
  {
    "binder": "ACHWLEDCWRGFCHLE (linker 2-8-13 via TATA; not fully specified (C-terminus)) [Example 75]",
    "pKd": 7.04
  },
  {
    "binder": "CQXLEDCWRGXC (not fully specified; N-term acetyl; CQ[Nal1]LEDCWRG[4-FPhe]C as printed; 3 Cys on TATA) [Example 27]",
    "pKd": 7.92
  },
  {
    "binder": "ACRDLDPWTCEEWWLCAHP (linker 2-10-16 via TATA) [Example 170]",
    "pKd": 6.77
  },
  {
    "binder": "ACRDLDPWTCSSWWLCSSDTTDA (linker 2-10-16 via TATA) [Example 176]",
    "pKd": 6.52
  },
  {
    "binder": "Ac-CDWLEDCWRGFCTTS (linker 1-7-12 via TATA; not fully specified (C-terminus)) [Example 100]",
    "pKd": 6.80
  },
  {
    "binder": "CWWLQDCWXGXC (not fully specified; N-term acetyl; CWWLQDCW[ADMA]G[4-FPhe]C as printed; 3 Cys on TATA) [Example 28]",
    "pKd": 7.92
  },
  {
    "binder": "ACVDLDPWSCEDWWLCA (linker 2-10-16 via TATA) [Example 183]",
    "pKd": 6.48
  },
  {
    "binder": "AHPCADLDPWTCPNWWLCA (linker 4-12-18 via TATA; not fully specified (C-terminus)) [Example 165]",
    "pKd": 7.52
  },
  {
    "binder": "ACTELDPWTCETWWLCA (linker 2-10-16 via TATA; not fully specified (C-terminus)) [Example 163]",
    "pKd": 6.64
  }
]
